experiment: Apparent permeability from apical to basolateral side of the human Caco2 cells; type: ADME, cell-based; conditions: caco-2
ASSAY METRIC: Papp (×10⁻⁶ cm/s)

[
  {
    "SMI": "COc1ccc(-n2nc(C(N)=O)c3c2C(=O)N(c2ccc(C(C)(C)S(C)(=O)=O)cc2)CC3)cc1",
    "UNIT SYMBOL": "×10⁻⁶ cm/s",
    "REPORTED VALUE": 1
  }
]

P = COc1ccc(-n2nc(C(N)=O)c3c2C(=O)N(c2ccc(C(C)(C)N(C)C)cc2)CC3)cc1
Q = COc1ccc(-n2nc(C(N)=O)c3c2C(=O)N(c2ccc(C(C)(C)CN4CCCCC4=O)cc2)CC3)cc1
R = COc1ccc(-n2nc(S(C)(=O)=O)c3c2C(=O)N(c2ccc(C(C)(C)CN4CCCC4)cc2)CC3)cc1
INPUT: Sort ascending by Papp. When ranking, write the labels in the order the request describes.
OUTPUT: P, R, Q
(P: 1.1 ×10⁻⁶ cm/s, R: 4.3 ×10⁻⁶ cm/s, Q: 8.3 ×10⁻⁶ cm/s)
